# study.target: Prostaglandin G/H synthase 2 (Homo sapiens, UniProt P35354)
# Sequence (P35354 whole entry): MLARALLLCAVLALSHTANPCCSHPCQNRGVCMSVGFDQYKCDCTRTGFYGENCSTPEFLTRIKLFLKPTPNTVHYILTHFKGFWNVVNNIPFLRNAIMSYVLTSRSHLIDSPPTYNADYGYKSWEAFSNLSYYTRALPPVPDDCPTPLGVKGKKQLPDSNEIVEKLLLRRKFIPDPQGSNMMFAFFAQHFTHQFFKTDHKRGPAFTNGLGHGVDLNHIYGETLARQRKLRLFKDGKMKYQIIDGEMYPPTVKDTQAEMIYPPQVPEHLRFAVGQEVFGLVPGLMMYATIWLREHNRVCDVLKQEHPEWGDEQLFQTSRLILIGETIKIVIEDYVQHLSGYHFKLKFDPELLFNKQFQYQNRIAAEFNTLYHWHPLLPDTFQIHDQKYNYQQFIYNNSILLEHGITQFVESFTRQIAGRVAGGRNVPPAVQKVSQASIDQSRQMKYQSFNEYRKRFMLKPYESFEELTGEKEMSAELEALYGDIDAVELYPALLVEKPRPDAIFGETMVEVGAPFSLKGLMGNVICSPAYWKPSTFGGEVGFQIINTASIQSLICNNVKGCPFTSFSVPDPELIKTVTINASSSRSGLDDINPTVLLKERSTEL
# protocol.details: Inhibition concentration against cyclooxygenase-2 (COX-2) in human whole blood
Hi there, I'd appreciate the recorded pIC50 for every entry that follows.
API: returns pIC50 as number; meaning -log10 of concentration in mol/L.

I have this compound here, Cc1cc(=O)c(Oc2ccc(Br)cc2Cl)c(-c2ccc(S(C)(=O)=O)cc2)o1 , and I need its recorded pIC50. 6.51

I have this compound here, Cc1cc(=O)c(Oc2ccc(Cl)c(Cl)c2)c(-c2ccc(S(C)(=O)=O)cc2)o1 , and I need its recorded pIC50. 5.47

I have this compound here, Cc1cc(=O)c(Oc2ccc(Cl)cc2F)c(-c2ccc(S(C)(=O)=O)cc2)o1 , and I need its recorded pIC50. 6.70

I have this compound here, Cc1cc(=O)c(Oc2ccc(C(=O)O)cc2)c(-c2ccc(S(C)(=O)=O)cc2)o1 , and I need its recorded pIC50. 5.00

I have this compound here, Cc1cc(=O)c(Oc2ccc(OC(F)(F)F)cc2)c(-c2ccc(S(C)(=O)=O)cc2)o1 , and I need its recorded pIC50. 5.84

All values here come from ChEMBL document CHEMBL1149180.
